Biological target: PDE9 (Homo sapiens (Human))
Sequence (O76083 whole entry): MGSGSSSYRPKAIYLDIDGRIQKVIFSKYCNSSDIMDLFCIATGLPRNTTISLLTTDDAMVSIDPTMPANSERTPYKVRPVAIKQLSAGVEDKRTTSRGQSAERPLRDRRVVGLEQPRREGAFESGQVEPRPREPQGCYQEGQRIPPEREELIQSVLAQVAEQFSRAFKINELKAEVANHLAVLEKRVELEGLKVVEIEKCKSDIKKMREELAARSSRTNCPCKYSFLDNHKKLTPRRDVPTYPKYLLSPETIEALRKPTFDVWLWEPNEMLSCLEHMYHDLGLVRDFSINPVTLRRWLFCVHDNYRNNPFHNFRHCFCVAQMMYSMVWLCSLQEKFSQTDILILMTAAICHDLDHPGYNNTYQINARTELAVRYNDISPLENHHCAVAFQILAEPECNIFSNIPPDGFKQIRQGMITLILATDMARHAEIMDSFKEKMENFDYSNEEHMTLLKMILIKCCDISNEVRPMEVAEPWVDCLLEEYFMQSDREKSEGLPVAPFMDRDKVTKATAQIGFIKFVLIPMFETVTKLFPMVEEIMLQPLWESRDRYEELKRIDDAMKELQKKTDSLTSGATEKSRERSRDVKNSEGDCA
Test: PDE9 inhibition assay, SPA with 3H-cAMP
Type: biochemical
Let's look at some compounds and their measured % inhibition of PDE9 at 10 microM.
Return type: number; implicit unit %.

Below are worked cases with known answers.
Cc1cn2c([C@H]3C[C@@H]3F)ncc2c(=O)n1Cc1cccc(F)c1 (single isomer, unassigned; isomer 2) [37, isomer 2]	13
Cc1cn2c([C@@H]3C[C@@H]3F)ncc2c(=O)n1Cc1cccc(F)c1 (single isomer, unassigned; isomer 1) [37, isomer 1]	−2

Return % inhibition of PDE9 at 10 microM (reported value) for this compound: Cc1cn2c(N3CCC4OCC[C@H]43)ncc2c(=O)n1Cc1cccc(F)c1 (single isomer, unassigned; isomer 1) [99, isomer 1]
9

# return recorded % inhibition of PDE9 at 10 microM for entry Cc1cn2c([C@@H]3C[C@H]3F)ncc2c(=O)n1Cc1cccc(F)c1 (single isomer, unassigned; isomer 1) [38, isomer 1]
−1

Check the records and state % inhibition of PDE9 at 10 microM for Cc1cn2c(N3CCC4OCC[C@@H]43)ncc2c(=O)n1Cc1cccc(F)c1 (single isomer, unassigned; isomer 2) [99, isomer 2]
6

Supply measured % inhibition of PDE9 at 10 microM of Cc1cn2c([C@H]3C[C@H]3F)ncc2c(=O)n1Cc1cccc(F)c1 (single isomer, unassigned; isomer 2) [38, isomer 2] in your reply.
2

###

Quick record: pIC50, PDE1C (Homo sapiens (Human)).
// pIC50: -log10(molar conc.)

Known results for molecules:
Cc1cn2c([C@H]3C[C@H]3F)ncc2c(=O)n1Cc1cccc(F)c1 (single isomer, unassigned; isomer 2) [38, isomer 2]	6.82
Cc1cn2c([C@@H]3C[C@@H]3F)ncc2c(=O)n1Cc1cccc(F)c1 (single isomer, unassigned; isomer 1) [37, isomer 1]	6.46
Cc1cn2c([C@H]3C[C@@H]3F)ncc2c(=O)n1Cc1cccc(F)c1 (single isomer, unassigned; isomer 2) [37, isomer 2]	7.26
Cc1cn2c(N3CCC4OCC[C@H]43)ncc2c(=O)n1Cc1cccc(F)c1 (single isomer, unassigned; isomer 1) [99, isomer 1]	7.57

Report the value of pIC50 obtained on PDE1C (Homo sapiens (Human)) for Cc1cn2c(N3CCC4OCC[C@@H]43)ncc2c(=O)n1Cc1cccc(F)c1 (single isomer, unassigned; isomer 2) [99, isomer 2] .
Sequence (Q14123 whole entry): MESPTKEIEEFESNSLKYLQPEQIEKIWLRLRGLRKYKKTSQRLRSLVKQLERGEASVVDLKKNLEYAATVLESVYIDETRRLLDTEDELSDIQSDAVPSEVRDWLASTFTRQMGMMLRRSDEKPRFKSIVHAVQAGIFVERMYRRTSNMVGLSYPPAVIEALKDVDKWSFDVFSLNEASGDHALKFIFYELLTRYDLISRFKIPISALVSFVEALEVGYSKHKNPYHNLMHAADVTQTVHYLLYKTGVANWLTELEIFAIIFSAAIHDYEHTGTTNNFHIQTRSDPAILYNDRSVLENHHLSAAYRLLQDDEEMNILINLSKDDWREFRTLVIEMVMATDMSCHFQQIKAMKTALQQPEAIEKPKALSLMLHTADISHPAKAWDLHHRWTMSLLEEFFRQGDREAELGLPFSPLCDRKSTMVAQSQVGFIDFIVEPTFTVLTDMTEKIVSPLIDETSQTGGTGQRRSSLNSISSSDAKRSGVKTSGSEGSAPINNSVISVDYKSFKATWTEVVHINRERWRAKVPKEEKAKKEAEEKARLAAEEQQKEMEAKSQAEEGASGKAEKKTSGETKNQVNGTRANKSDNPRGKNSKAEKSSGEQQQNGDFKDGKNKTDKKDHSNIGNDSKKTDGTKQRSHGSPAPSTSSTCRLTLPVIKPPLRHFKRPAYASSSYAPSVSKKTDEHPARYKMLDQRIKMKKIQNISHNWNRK
6.92

###

Target: PDE1B (Homo sapiens (Human))
Sequence (Q01064 whole entry): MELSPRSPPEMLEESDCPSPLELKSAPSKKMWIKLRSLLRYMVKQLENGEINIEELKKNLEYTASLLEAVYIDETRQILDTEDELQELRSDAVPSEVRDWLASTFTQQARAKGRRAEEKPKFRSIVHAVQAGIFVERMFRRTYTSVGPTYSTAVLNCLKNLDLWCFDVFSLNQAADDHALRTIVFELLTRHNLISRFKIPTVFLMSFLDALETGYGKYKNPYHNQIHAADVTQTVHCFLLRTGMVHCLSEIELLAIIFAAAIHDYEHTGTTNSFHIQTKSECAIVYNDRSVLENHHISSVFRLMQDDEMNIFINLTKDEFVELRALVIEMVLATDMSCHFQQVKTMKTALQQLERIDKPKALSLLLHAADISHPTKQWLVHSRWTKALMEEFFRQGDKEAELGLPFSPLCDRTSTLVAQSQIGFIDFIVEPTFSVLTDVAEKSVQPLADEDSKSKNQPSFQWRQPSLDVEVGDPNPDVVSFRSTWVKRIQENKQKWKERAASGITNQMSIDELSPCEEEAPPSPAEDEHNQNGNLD
Assay: PDE1 inhibition assay (PDE1B), SPA with tritium labelled cAMP
Type: biochemical
metric.name: IC50
Note: a bare number is incomplete; add the unit.

Complete the entry with IC50 for Cc1cn2c(N3CCC4OCC[C@H]43)ncc2c(=O)n1Cc1cccc(F)c1 (single isomer, unassigned; isomer 1) [99, isomer 1]
134 nM

Note IC50 for the molecule shown: COc1ccc(Cn2c(C)cn3c([C@H]4CCO[C@@H]4C)ncc3c2=O)cc1 (single isomer, unassigned; isomer 3) [55, isomer 3]
3 nM

Provide IC50 value for the following molecule: Cc1cn2c(N3CCC4OCC[C@@H]43)ncc2c(=O)n1Cc1cccc(F)c1 (single isomer, unassigned; isomer 2) [99, isomer 2]
760 nM
